# assay-text: NCI Yeast Anticancer Drug Screen. Data for the rad50 strain (AID 155)
# condition-details: S. cerevisiae rad50 strain growth inhibition; at 3.7 µM; stronger effect = higher value
Compounds without any hit were thinned out: in the full panel of roughly 79,000, 15% have a hit.
Where growth inhibition equals or exceeds 20%, the correct label is rule met; where it does not, the label is rule not met.

Query: Form field: growth inhibition at least 20%? Entry: CCOC(=O)COc1c(OC)cc(C2C3=C(COC3=O)Oc3cc4c(cc32)OCO4)cc1OC (centres undefined)
Reply: rule not met

Query: Form field: growth inhibition at least 20%? Entry: Oc1ccc(-c2nc(-c3ccc(F)cc3)c(-c3ccc4ccccc4n3)[nH]2)cc1
Reply: rule not met

Query: Form field: growth inhibition at least 20%? Entry: C[C@@](O)(/C=C/[C@H]1CC=CC(=O)O1)[C@@H](C[C@@H](O)\C=C/C=C\C=C\CO)OP(=O)(O)O
Reply: rule met

Query: Form field: growth inhibition at least 20%? Entry: CN(C)c1ccc(C2CC(C)(O)Oc3cc4c(cc32)OCO4)cc1 (centres undefined)
Reply: rule not met

Query: Form field: growth inhibition at least 20%? Entry: NCCNCCNc1ccc(NCCNCCN)c2c1C(=O)c1c(O)ccc(O)c1C2=O
Reply: rule met

Query: Form field: growth inhibition at least 20%? Entry: CCOC(=O)[C@H]1Nc2ccc(OC)cc2C2c3ccccc3CC21 (some centres undefined)
Reply: rule not met

Query: Form field: growth inhibition at least 20%? Entry: Nc1cc(N)c(N=Nc2cccc3c(S(=O)(=O)O)cccc23)cc1N=Nc1cc([N+](=O)[O-])ccc1O
Reply: rule not met

Query: Form field: growth inhibition at least 20%? Entry: CCC1(OC(=O)CN2CCN(CCO)CC2)C(=O)OCc2c1cc1n(c2=O)Cc2cc3ccccc3nc2-1 (centres undefined)
Reply: rule met

Query: Form field: growth inhibition at least 20%? Entry: O=Cc1ccc2c(c1)C(=O)c1ccccc1C2=O
Reply: rule not met

====

# assay-text: NCI Yeast Anticancer Drug Screen. Data for the rad50 strain (AID 155)
# condition-details: S. cerevisiae rad50 strain growth inhibition; at 33.0 µM
# Experimental: Growth inhibition of yeast strains with defined genetic alterations is measured as a screen for potential anti-cancer activity. Selected strains with alterations in DNA damage repair or cell cycle control were exposed to compounds and growth inhibition was measured relative to vehicle treated controls. The strain used in this assay is rad50
The panel holds about 79,000 compounds, 15% with a hit somewhere; the sample as a whole holds those more often. Activity calls are given as the source filed them. Rule as the data show it: active = growth inhibition above about 70%; inactive = the rest.
Please reply with one of these outcomes: active, inactive

Query: Name the outcome recorded for COc1cc(/C=N/Nc2nnc3c4ccccc4c4ncccc4c3n2)cc(OC)c1OC in the assay.
Reply: active

Query: Name the outcome recorded for CNC(=O)OCc1c(COC(=O)NC)c(-c2ccc(Cl)cc2)n2c1CCC2 in the assay.
Reply: inactive

Query: Name the outcome recorded for COc1cc(O)c2c(c1O)C(=O)c1cc(C)ncc1C2=O in the assay.
Reply: inactive

Query: Name the outcome recorded for O=C1C(Br)=C(c2ccccc2)O/C1=C/C(=O)c1ccc(Br)cc1 in the assay.
Reply: inactive

Query: Name the outcome recorded for CC[N+](CC)(CC)c1ccccc1 in the assay.
Reply: inactive

Query: Name the outcome recorded for CCOC(=O)C(C(=O)OCC)=P(c1ccccc1)(c1ccccc1)c1ccccc1 in the assay.
Reply: inactive

Query: Name the outcome recorded for CC(C)C(C)/C=C\C(C)C1CCC2C3=CC=C4CC(O)CCC4(C)C3CCC21C (stereo unspecified) in the assay.
Reply: inactive

Query: Name the outcome recorded for COc1cccc2c1C(=O)c1c(O)c3c(c(O)c1C2=O)CC(O)(C(O)CO)CC3OC1CC(N2CCOCC2)C(O)C(C)O1 (stereo unspecified) in the assay.
Reply: active

Query: Name the outcome recorded for CCOc1ccccc1N=Cc1c2ccccc2cc2ccccc12 in the assay.
Reply: active

Query: Name the outcome recorded for N/C(=N/N=C/c1cc(Br)cc(Br)c1O)NO in the assay.
Reply: active

Query: Name the outcome recorded for CC(C)CN(CC(C)C)C(=O)c1ccc(Cl)c(Cl)c1 in the assay.
Reply: active

Entry source: PubChem BioAssay (NCI)
